molecular target: Aβ42-GFP (Homo sapiens); construct: a chimeric fusion of the human Aβ(1-42) peptide (Aβ42) with GFP; expressed in transfected cells; host or cells: E. coli BL21(DE3); assay: High-throughput sequencing of pSICLOPPS vectors isolated after bacterial sorting for enhanced Aβ42-GFP fluorescence; conditions: Table 4
endpoint-name: Reads/Total peptide reads (%)
Quote the value and follow it with the unit of measurement.

The cases that follow already have their Reads/Total peptide reads (%) on record.
substance="TPAWSD [AβC6-69]" target_of_assay="Aβ42-GFP (Homo sapiens)" value=0.002%
substance="TPARFD [AβC6-78]" target_of_assay="Aβ42-GFP (Homo sapiens)" value=0.001%
substance="TLEYFM [AβC6-28]" target_of_assay="Aβ42-GFP (Homo sapiens)" value=0.012%

Please report Reads/Total peptide reads (%) for every entry that follows.
1. TPCWFD [AβC6-46]
2. TLEFFD [AβC6-4]
3. TLCWLN [AβC6-32]
4. TPPWFD [AβC6-44]
5. TPVWFD [AβC6-1]

Solution:
["0.006%", "0.597%", "0.010%", "0.006%", "2.912%"]

* * *

target: Aβ42-GFP (Homo sapiens); construct: a chimeric fusion of the human Aβ(1-42) peptide (Aβ42) with GFP; expressed in transfected cells; host or cells: E. coli BL21(DE3); experiment: High-throughput sequencing of pSICLOPPS vectors isolated after bacterial sorting for enhanced Aβ42-GFP fluorescence; conditions: Table 4
Threshold 0.3%: Reads/Total hexapeptide reads (%) strictly smaller gives 1, otherwise -1.

substance="TLGWLD [AβC6-42]" qualitative_label=1
substance="TKEYFD [AβC6-21]" qualitative_label=1
substance="TLLIRW [AβC6-8]" qualitative_label=-1
substance="TLCWLN [AβC6-32]" qualitative_label=1
substance="TVTWFD [AβC6-6]" qualitative_label=-1

Attention now turns to another entry.
Exercise: Is it true that Reads/Total hexapeptide reads (%) reported for TLEYLW [AβC6-49] is less than 0.3%?
Solution: 1
